tgt: SARS-CoV-2 spike trimer (Wuhan) (SARS-CoV-2, UniProt P0DTC2)
test.name: competition
assay.readout: IC50 (µg/mL)

1) 6R9B-B11 (antibody, V domains shown) VH: EVQLVESGGGLVQPGGSLRLSCKASGFTFSRQALTWVRQAPGKGLEWIGVIASNADTYYASWAKGRFTISRDNSKNTLYLQMNSLRAEDTAVYYCARHPGSAGYGYQYYYAMDPWGQGTLVTVSS VL: DIQMTQSPSSLSASVGDRVTITCQASQAIKYAINWYQQKPGKAPKLLIYGANYRGPGVPSRFSGSGSGTDYTLTISSLQPEDFATYYCQQGYIVPITFGGGTKVEIKR :: 0.015
2) 6R8C-D10 (antibody, V domains shown) VH: EVQLVESGGGLVQPGGSLRLSCTASGYSISHQAVTWVRQAPGKGLEWIGVIASNADTYYASWAKGRFTISRDNSKNTLYLQMNSLRAEDTAVYYCARHPGSAGYGYQYYYAMDPWGQGTLVTVSS VL: DIQMTQSPSSLSASVGDRVTITCQASEEVHYGINWYQQKPGKAPKLLIYGANYRVDGVPSRFSGSGSGTDYTLTISSLQPEDFATYYCQQGYNVPTDFGGGTKVEIKR :: 0.0098
3) 6R8C-D9 (antibody, V domains shown) VH: EVQLVESGGGLVQPGGSLRLSCKASGFTFSRQALTWVRQAPGKGLEWIGVIASNADTYYASWAKGRFTISRDNSKNTLYLQMNSLRAEDTAVYYCARHPGSAGYGYQYYYAMDPWGQGTLVTVSS VL: DIQMTQSPSSLSASVGDRVTITCQASEEVHYGINWYQQKPGKAPKLLIYGANYRVDGVPSRFSGSGSGTDYTLTISSLQPEDFATYYCQQGYNVPTDFGGGTKVEIKR :: 0.0203
